Target: VR1 (rat) (Rattus norvegicus, UniProt O35433)
Construct: from tissue; host or cells: primary cells dissociated from rat dorsal root ganglia
Sequence (O35433 whole entry): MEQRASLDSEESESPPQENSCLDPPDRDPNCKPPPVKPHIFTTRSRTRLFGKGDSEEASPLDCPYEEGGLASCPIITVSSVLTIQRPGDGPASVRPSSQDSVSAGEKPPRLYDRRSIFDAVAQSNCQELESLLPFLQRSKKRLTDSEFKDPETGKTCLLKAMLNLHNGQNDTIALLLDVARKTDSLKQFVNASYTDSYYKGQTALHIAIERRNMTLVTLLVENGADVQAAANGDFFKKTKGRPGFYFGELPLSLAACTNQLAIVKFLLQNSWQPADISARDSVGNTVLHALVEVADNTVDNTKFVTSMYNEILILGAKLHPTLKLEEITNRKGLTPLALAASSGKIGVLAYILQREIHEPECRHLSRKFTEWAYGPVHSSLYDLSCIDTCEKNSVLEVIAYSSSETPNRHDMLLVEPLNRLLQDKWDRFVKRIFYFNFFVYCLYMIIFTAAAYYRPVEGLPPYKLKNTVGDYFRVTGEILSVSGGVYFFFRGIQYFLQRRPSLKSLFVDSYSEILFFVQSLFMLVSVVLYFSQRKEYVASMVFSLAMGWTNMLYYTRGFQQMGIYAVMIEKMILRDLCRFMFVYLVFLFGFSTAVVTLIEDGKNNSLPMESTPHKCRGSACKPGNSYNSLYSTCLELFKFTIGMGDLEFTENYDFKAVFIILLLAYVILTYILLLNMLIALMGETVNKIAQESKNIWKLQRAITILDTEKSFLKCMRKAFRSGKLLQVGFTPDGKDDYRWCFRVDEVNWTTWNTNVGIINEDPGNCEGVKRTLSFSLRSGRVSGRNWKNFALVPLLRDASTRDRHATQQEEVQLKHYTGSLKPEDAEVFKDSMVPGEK
Test: Functional FLIPR Ca2+ inflow assay on rat-species vanilloid receptor 1 in rat dorsal root ganglia cells
Assay type: cell-based
Settings: test compound 10 μM; Ca2+ signal relative to 10 μM capsaicin (CP)
Description: I. Functional Testing Carried Out on the Vanilloid Receptor 1 (VR1/TRPV1 Receptor) The agonistic or antagonistic effect of the substances to be tested can be determined on the rat-species vanilloid receptor 1 (VR1/TRPV1) using the following assay. […]
Listing of entries alongside the reported VR1 (rat) (% stimulation compared to 10 μM CP).
PARAMETER: VR1 (rat) (% stimulation compared to 10 μM CP) (%)

SMILES_INPUT | TEST_TARGET | VALUE_OBSERVED
CC(C)(C)[C@H]1CC[C@@]2(CC1)CC(C(=O)N1CCN(c3nsnc3Cl)CC1)=NO2 | VR1 (rat) (Rattus norvegicus, UniProt O35433) | 0.33
CC(C)(C)[C@H]1CC[C@@]2(CC1)CC(C(=O)NCc1ccncc1)=NO2 | VR1 (rat) (Rattus norvegicus, UniProt O35433) | 87.96
CC(C)(C)[C@H]1CC[C@@]2(CC1)CC(C(=O)N1CCCN(c3ncccc3Cl)CC1)=NO2 | VR1 (rat) (Rattus norvegicus, UniProt O35433) | −0.37
CC(C)(C)[C@H]1CC[C@@]2(CC1)CC(C(=O)N1CCN(c3ccc(O)cc3)CC1)=NO2 | VR1 (rat) (Rattus norvegicus, UniProt O35433) | −0.37
COc1cc2c(cc1OC)CN(C(=O)C1=NO[C@]3(CC[C@H](C(C)(C)C)CC3)C1)CC2 | VR1 (rat) (Rattus norvegicus, UniProt O35433) | 84.04
CC(C)(C)[C@H]1CC[C@]2(CC1)CC(C(=O)N1CCN(c3ccc(O)cc3)CC1)=NO2 | VR1 (rat) (Rattus norvegicus, UniProt O35433) | 8.77

Every entry's value here was drawn from patent US7981883B2.
